# system.tested: T1, HLA-A*02:01 (peptide-receptive MHC class I monomer from UV-ligand exchange) (human)
# T1 construct: Monomers were captured on streptavidin-coated plates
# protocol.notes: UV-exchange ELISA (anti-b2m); exchange yield grade: + >=10%, ++ >=20%, +++ >=50%, ++++ >=75%
In this section we review reported peptide exchange yield values for a set of binders.

# binder, peptide exchange yield
rows = [
    ("GLLKPGLNVVL [peptide GLLKPGLNVVL (SEQ ID NO 90)]", "50 to 75%"),
    ("VLYTGVVRV [peptide VLYTGVVRV (SEQ ID NO 185)]", "50 to 75%"),
    ("MISELEVRL [peptide MISELEVRL (SEQ ID NO 70)]", "50 to 75%"),
    ("GLIDEVMVL (also called CYP2W1-001) [peptide GLIDEVMVL (SEQ ID NO 22)]", "50 to 75%"),
    ("TVDVATPSV [peptide TVDVATPSV (SEQ ID NO 91)]", "50 to 75%"),
    ("SAQGSDVSLTACKV [peptide SAQGSDVSLTACKV (SEQ ID NO 151)]", "50 to 75%"),
    ("VLIDHRWVL [peptide VLIDHRWVL (SEQ ID NO 21)]", "50 to 75%"),
    ("ALTEIQEFI [peptide ALTEIQEFI (SEQ ID NO 28)]", "≥ 75%"),
    ("AISEVIGKITA [peptide AISEVIGKITA (SEQ ID NO 189)]", "50 to 75%"),
    ("GMLNEAEGKAIKL [peptide GMLNEAEGKAIKL (SEQ ID NO 69)]", "20 to 50%"),
]

// moving on: another record for peptide exchange yield
Query: Tell me the measured peptide exchange yield of KLNTETFGV [peptide KLNTETFGV (SEQ ID NO 32)] , please.
Response: 20 to 50%
